EXPERIMENTAL_DETAILS: Binding affinity to amyloid beta (1 to 42) aggregates after 30 mins by fluorescence assay
QUANTITY: Kd (nM)
All answers are understood in nM, so give the number only.

Data point: `CN(C)c1ccc(/N=N/c2nc3ccc(OCCOCCOCC[18F])cc3s2)cc1` ; Kd = 45.4

---

EXPERIMENTAL_DETAILS: Displacement of Thioflavin S from amyloid beta (1 to 42) aggregates after 30 mins by fluorescence assay
QUANTITY: IC50
Please append the unit to your numeric answer.

Data point: `CN(C)c1ccc(/N=N/c2nc3ccc(OCCOCCOCCF)cc3s2)cc1` ; IC50 = 47.3 nM
